// provenance: paper PMC12416549

- target-or-system: T1, TNFR1 (Homo sapiens, UniProt P19438)
- T1 chain: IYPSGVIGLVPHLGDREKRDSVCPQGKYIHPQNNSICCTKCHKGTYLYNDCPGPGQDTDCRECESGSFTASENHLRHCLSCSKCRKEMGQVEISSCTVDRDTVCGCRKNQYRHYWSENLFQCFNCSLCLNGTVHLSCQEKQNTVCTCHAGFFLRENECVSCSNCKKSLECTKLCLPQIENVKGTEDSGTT
- experiment-summary: yeast display SC50
Parameter apparent Kd (screen): see the listing below.

binder: F39W (designed binder) SMEEEVEKAAKEYEKKKKEAIEKHLEKLKAKDKEAAERWLKELEEAAKEYAKDEAKTMSEEEAKRRAKKYKEKVLLSELSEEEQKEIKEAEEKLVRTILKYVEEAAK
apparent Kd (screen), nM: 1.05
--
binder: K73Y (designed binder) SMEEEVEKAAKEYEKKKKEAIEKHLEKLKAKDKEAAERFLKELEEAAKEYAKDEAKTMSEEEAKRRAKKYKEYVLLSELSEEEQKEIKEAEEKLVRTILKYVEEAAK
apparent Kd (screen), nM: 10.4
--
binder: L25H (designed binder) SMEEEVEKAAKEYEKKKKEAIEKHHEKLKAKDKEAAERFLKELEEAAKEYAKDEAKTMSEEEAKRRAKKYKEKVLLSELSEEEQKEIKEAEEKLVRTILKYVEEAAK
apparent Kd (screen), nM: 0.49
--
binder: E26I (designed binder) SMEEEVEKAAKEYEKKKKEAIEKHLIKLKAKDKEAAERFLKELEEAAKEYAKDEAKTMSEEEAKRRAKKYKEKVLLSELSEEEQKEIKEAEEKLVRTILKYVEEAAK
apparent Kd (screen), nM: 1.16
--
binder: E81H (designed binder) SMEEEVEKAAKEYEKKKKEAIEKHLEKLKAKDKEAAERFLKELEEAAKEYAKDEAKTMSEEEAKRRAKKYKEKVLLSELSHEEQKEIKEAEEKLVRTILKYVEEAAK
apparent Kd (screen), nM: 0.593
--
binder: K68F (designed binder) SMEEEVEKAAKEYEKKKKEAIEKHLEKLKAKDKEAAERFLKELEEAAKEYAKDEAKTMSEEEAKRRAFKYKEKVLLSELSEEEQKEIKEAEEKLVRTILKYVEEAAK
apparent Kd (screen), nM: 3
